tested_system: TDP-43 (Homo sapiens, UniProt Q13148 1-414)
Sequence (Q13148 whole entry): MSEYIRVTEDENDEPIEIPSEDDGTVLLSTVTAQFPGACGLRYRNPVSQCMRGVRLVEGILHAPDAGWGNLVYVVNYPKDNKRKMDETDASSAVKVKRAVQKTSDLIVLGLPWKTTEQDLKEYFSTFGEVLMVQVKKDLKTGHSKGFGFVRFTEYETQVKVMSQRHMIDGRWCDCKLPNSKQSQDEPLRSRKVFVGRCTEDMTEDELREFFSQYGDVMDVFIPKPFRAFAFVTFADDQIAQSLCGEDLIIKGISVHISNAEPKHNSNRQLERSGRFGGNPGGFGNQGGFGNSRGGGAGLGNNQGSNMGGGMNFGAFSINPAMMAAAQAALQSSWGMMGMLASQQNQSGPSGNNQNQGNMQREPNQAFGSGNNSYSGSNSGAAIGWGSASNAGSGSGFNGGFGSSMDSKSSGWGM
procedure_details: RNA Bind-n-Seq with designed 260-mer pool; 25 mM Tris-HCl, 150 mM KCl, 3 mM MgCl2, BSA (printed 500 mg/mL), 20 units/mL SUPERase IN; pH not stated; 500 nM RNA pool, 1 h, 4 C; TDP-43 5, 50, 500 nM; high values mean tight binding
condition_parameters: protein: recombinant; tags: SBP (GST cleaved off with PreScission; pGEX-GST-SBP)
The full ranking holds about 9,900 sequences; the median of “r (bound/input frequency ratio)” is about 0.7, and the highest 2% start at about 6.5. The full list was thinned out, with the highest values kept by preference.
property_name: binding signal

ENSMUSG00000043670.69|Diras1 (ssRNA) RNA: GGGAGUUCUACAGUCCGACGAUCGCUUCGAUAUCCGCAUGCUACCAUUCUAUCUGCACCCCACAACCACACACUGGAGGUUUGAUCCCUGUGGAUCUGAAAACAGGGACCUGGCUAAGGAACUGCUCAUCCCAGUCAGGCCCAGAGAGGUUACCUUGCCUCUCCAUCUCUGUCCCUGUGUGCCCAGCCAUGCCCACUGUCCCUGUCCCUCACAUUCUAUCACUGUGACCUCUGGGGAGUGCCCAUUGACCUCAUCUUCCUUCACUAAUAUCUUAUUUCUUUCACCUGAUCCUGUCCUUUCCCCCUCUUGCGGUCGCACUAGUGUGGAAUUCUCGGGUGUCAAGG | 2.12 R (bound/input frequency ratio)

For the next question, use this binder.
[ask] Recorded binding signal for ENSMUSG00000029636.217|Wasf3|154:158;247:254 (ssRNA) RNA: GGGAGUUCUACAGUCCGACGAUCGCUUCGAUAUCCGCAUGCUAAUAAGUCUGUGAUAUCCGCAGGCUUGGGUUACAGGGAGGACCUUGCAGAGGGACCAGGACACUGCCUUCCCUUAGGUGCAUUAUUUACGUGGCCUGCAGCUCUUAAUAUCUCUCACUGUUUAUGAAAAGAAAGAUUCAGAUCCGGGGUGACAUACACACAGUUGACAGGGAAUGCCUGUGGGAUAAUUAAAAAUGGUUUUUGCUCAUGAGUUUGGGAUGUCACCCAGCCGCCCACAUCGCCUGCUAACACACACGACGCCCUCUUGCGGUCGCACUAGUGUGGAAUUCUCGGGUGUCAAGG , please?
[reply] 1.49 R (bound/input frequency ratio)
